test system: SNB-78; assay: NCI tumour cell line growth inhibition, 48 h
Active and inactive are the calls of the source. No stated cut-off is given here; in the data, active = GI50 up to about 1.1 µM and inactive = higher.
Pick one and only one: active, inactive

Solved cases (6 shown):
Prompt: Recorded call for Cc1cc2c(c(C(N)=O)c1C)-c1cccc(Cl)c1C2=O ?
Completion: inactive

Prompt: Recorded call for CN(C)/C=N\c1cc[nH]c(=O)n1 ?
Completion: inactive

Prompt: Recorded call for c1ccc(Nc2nnc(CSc3nc(-c4ccccc4)c(-c4ccccc4)[nH]3)s2)cc1 ?
Completion: inactive

Prompt: Recorded call for O=[N+]([O-])c1cc([N+](=O)[O-])c(C(Cl)C(Cl)c2ccccc2)cc1C(Cl)C(Cl)c1ccccc1 (stereo unspecified) ?
Completion: inactive

Prompt: Recorded call for CC(=O)Oc1ccc2c(c1)C(=O)c1nc(C)c(C)nc1C2=O ?
Completion: inactive

Prompt: Recorded call for CCOc1ccc2[nH]c3c(C)c4cc[n+](C)cc4c(C)c3c2c1 ?
Completion: active

Further cases:
Prompt: Recorded call for COc1cc(-c2[nH]ccc2Cl)oc1C1=C2N=C3C=C2C(C(C)C)C1CCCCCCCC3 (stereo unspecified) ?
Completion: inactive

Prompt: Recorded call for N#Cc1cc([N+](=O)[O-])ccc1NC(=O)/C(=N/N)C(C(=O)c1ccc(Cl)c(Cl)c1)C1OC(=O)c2ccccc21 (stereo unspecified) ?
Completion: inactive

Prompt: Recorded call for COC(=O)C1CC/C(=N/c2ccc(C)cc2C)N1 (stereo unspecified) ?
Completion: inactive

Prompt: Recorded call for S=C1CNC(=S)CN1 ?
Completion: inactive

====

test system: OVCAR-8; assay: NCI tumour cell line growth inhibition, 48 h
The source made the active and inactive calls. Rule as the data show it: active = GI50 up to about 1.1 µM and inactive = higher.
Pick one and only one: yes = active, no = inactive

Solved cases (4 shown):
Prompt: Recorded call for C=CC1=C(C)/C(=C/C2=NC(=C\c3[nH]c(CC4NC(=O)C(C)/C4=C\C)c(C)c3CCC(=O)O)/C(CC(=O)O)=C2C)NC1=O (stereo not given) ?
Completion: no

Prompt: Recorded call for Cc1cccc(Nc2nn3c(=O)c4c5c(sc4nc3s2)CCCC5)c1 ?
Completion: no

Prompt: Recorded call for COc1ccc2c(c1)-c1nn(CCCN(C)C)c3ccc([N+](=O)[O-])c(c13)N2 ?
Completion: yes

Prompt: Recorded call for Cc1cc(C)c(N[S+]([O-])c2ccc(Cl)cc2)c(C)c1 (stereo not given) ?
Completion: no

Further cases:
Prompt: Recorded call for COCOC1/C=C/CCCC#C[C@H](C)C(=O)CC1 (stereo not given in full) ?
Completion: no

====

// values below are reported GI50
test system: A498; assay: NCI tumour cell line growth inhibition, 48 h
Active and inactive are the calls of the source. No stated cut-off is given here; in the data, active = GI50 up to about 1.1 µM and inactive = higher.

Study these solved cases before continuing.
For Cc1ccc2c(c1)C(=O)c1nc(C)ccc1C2=O on A498, measured GI50 was 59.3 µM (inactive)

For CO[C@H]1[C@@H](O)[C@H](O[C@@H]2C[C@H]3CC[C@@H]4[C@H](CC[C@]5(C)[C@@H](C6=CC(=O)OC6)CC[C@]45O)[C@@]3(C)[C@H](OC(C)=O)C2)O[C@@H](C)[C@H]1O on A498, measured GI50 was 1.31 µM (inactive)

For CCCCCCCCCCCCCCCC(=O)OCCOCCOCCOCCOCCOC(=O)CCCCCCCCCCCCCCC on A498, measured GI50 was > 100 µM (inactive)

Next, consider the following compound.
For c1ccc(C2CC(N3CCOCC3)=Nc3ccccc3N2)cc1 (centres undefined) on A498, measured GI50 was > 100 µM (inactive)

Source listed as ChEMBL document CHEMBL1201862.
